Listing: IC50 of selected compounds
Target: Bcl-xL/Bim (Homo sapiens, UniProt Q07817)
Sequence (Q07817 whole entry): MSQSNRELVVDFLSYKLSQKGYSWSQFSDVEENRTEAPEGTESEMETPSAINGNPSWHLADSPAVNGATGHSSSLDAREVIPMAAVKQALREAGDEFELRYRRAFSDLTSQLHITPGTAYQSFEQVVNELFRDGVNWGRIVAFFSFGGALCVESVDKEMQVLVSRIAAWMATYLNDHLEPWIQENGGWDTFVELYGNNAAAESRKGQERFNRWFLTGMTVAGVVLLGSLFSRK
Experiment: Bcl-xL/Bim ELISA (GST-Bcl-xL binding to biotinylated Bim BH3 peptide)
Conditions: Table 3-C structure IV; n ≥ 3 (IV-1: n = 2); read-out: Bcl-xL-Bim IC50 (average ± SEM)
I only need the number, in µM, no unit after it.

Some solved entries appear below for comparison.
Compound	Study Target	Unit Descriptor	IC50
O=C(O)c1ccc(C(=O)c2cc(Cl)c3n2-c2c([nH]c(Cl)c2Cl)C(=O)c2ccc(C(=O)O)cc2O3)c(O)c1 [IV-4]	Bcl-xL/Bim (Homo sapiens, UniProt Q07817)	µM	18.3
O=C1c2ccc(O)cc2Oc2c(Cl)cc(C(=O)c3ccc(O)cc3O)n2-c2c1[nH]c(Cl)c2Cl [IV-2]	Bcl-xL/Bim (Homo sapiens, UniProt Q07817)	µM	9.5

Note to self: IC50 recorded for COC(=O)c1ccc(C(=O)c2cc(Cl)c3n2-c2c([nH]c(Cl)c2Cl)C(=O)c2ccc(C(=O)OC)cc2O3)c(O)c1 [IV-3] was 10.1
